Data provenance is patent US8148391B2.

target: baculovirus-expressed ALK (Homo sapiens, UniProt Q9UM73); construct: host or cells: baculovirus expression system; test: ALK Kinase Assay (ELISA-type, time-resolved fluorescence); assay type: biochemical; details: ALK kinase inhibition, 1 μM ATP; read-out: ALK Activity
Sequence (Q9UM73 19-1620): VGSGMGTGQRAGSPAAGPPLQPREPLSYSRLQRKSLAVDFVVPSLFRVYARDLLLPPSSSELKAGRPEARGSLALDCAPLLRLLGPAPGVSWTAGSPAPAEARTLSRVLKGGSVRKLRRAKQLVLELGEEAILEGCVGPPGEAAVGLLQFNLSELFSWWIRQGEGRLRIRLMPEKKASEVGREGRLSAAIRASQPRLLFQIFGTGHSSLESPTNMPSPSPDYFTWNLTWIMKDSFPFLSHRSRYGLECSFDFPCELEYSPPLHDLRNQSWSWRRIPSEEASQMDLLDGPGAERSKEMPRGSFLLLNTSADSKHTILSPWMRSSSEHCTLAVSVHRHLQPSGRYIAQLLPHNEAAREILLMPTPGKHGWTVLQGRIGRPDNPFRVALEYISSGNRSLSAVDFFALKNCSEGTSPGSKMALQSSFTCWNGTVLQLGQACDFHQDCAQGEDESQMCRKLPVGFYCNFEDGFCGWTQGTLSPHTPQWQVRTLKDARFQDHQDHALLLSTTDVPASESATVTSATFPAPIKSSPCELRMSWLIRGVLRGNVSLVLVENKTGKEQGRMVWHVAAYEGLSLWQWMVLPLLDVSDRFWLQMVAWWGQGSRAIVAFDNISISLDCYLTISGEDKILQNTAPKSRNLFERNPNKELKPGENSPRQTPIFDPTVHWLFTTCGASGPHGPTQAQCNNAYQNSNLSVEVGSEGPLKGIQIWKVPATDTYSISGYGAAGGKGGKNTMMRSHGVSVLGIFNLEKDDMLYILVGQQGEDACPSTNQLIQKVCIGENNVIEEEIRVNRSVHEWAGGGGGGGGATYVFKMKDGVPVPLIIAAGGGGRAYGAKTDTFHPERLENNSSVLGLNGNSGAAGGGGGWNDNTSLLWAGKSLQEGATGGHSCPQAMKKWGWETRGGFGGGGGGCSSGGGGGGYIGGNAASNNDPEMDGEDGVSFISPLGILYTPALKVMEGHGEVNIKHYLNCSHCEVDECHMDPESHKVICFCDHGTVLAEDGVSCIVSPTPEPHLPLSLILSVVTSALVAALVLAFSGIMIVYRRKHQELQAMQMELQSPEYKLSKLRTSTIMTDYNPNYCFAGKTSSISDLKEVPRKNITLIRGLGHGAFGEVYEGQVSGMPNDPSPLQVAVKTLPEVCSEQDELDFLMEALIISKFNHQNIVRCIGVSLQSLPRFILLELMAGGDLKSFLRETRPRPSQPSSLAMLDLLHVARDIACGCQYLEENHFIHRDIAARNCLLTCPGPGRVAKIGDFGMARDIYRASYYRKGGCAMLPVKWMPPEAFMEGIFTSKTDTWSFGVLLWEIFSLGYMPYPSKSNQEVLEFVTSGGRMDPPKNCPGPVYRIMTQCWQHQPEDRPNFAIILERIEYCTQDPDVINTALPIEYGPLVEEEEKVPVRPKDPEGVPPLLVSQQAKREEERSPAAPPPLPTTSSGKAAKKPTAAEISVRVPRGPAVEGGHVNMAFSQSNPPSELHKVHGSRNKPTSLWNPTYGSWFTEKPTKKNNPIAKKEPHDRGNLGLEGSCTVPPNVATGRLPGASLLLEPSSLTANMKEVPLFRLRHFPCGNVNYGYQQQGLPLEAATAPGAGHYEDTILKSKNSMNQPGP
pIC50: −log10 of the molar value.
Catalogue of molecules with associated pIC50

# CHEMICAL SMILES, pIC50
rows = [
    ("CNC(=O)c1cc(C)cc(C)c1Nc1nc(Nc2ccc3c(c2)CCOC(=O)N3C)ncc1Cl", "5.00 to 6.00"),
    ("CCN1CCNC(=O)c2ccc(Nc3ncc(Cl)c(Nc4ccccc4-c4nccn4C)n3)cc21", "> 7.00"),
    ("CNC(=O)c1cccc(F)c1Nc1nc(Nc2ccc3c(c2)NC(=O)CN(C(C)=O)C3)ncc1Cl", "6.00 to 7.00"),
    ("CNC(=O)c1cc(F)ccc1Nc1nc(Nc2ccc3c(c2)-n2ccnc2CCC3)ncc1Cl", "5.00 to 6.00"),
]
